All values here come from the supplement of paper PMC11208160.

Parameter: recombinant UMI read abundance (log10). Scope: all listed entries.
Test: recombinant UMI read abundance after kanamycin selection (control-corrected) (log10(CPM+1)); higher = more efficient recombination; extreme values may be limits of the assay; sequences stand for … in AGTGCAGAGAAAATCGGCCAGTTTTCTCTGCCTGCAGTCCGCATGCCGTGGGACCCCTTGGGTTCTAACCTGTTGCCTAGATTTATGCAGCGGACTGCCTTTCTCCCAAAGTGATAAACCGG…AGGTTGGTTTCACT; site = the 11-nt donor
Simply state the number, no unit and no words.

// worked examples, recombinant UMI read abundance (log10) included
residue_codes="TGGGAGTCATGGACCGGTTTTCCCGGTAATCCGTATTTGCC (site CGGGAGTCTGG)" reported_result=0
residue_codes="CGAGGAACATGGACCGGTTTTCCCGGTAATCCGTATTTGGG (site CGAGGATCTCC)" reported_result=1.59
residue_codes="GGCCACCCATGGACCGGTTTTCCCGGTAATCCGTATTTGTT (site GGCCACCCTAT)" reported_result=0.0103
residue_codes="ACTAGTACATGGACCGGTTTTCCCGGTAATCCGTATTTGAC (site ACTAGTACTGT)" reported_result=2.14

I would be grateful if you could share the reported recombinant UMI read abundance (log10) for CTTGTACCATGGACCGGTTTTCCCGGTAATCCGTATTTGAC (site CTAGTATCTGT) .
0

One more sequence: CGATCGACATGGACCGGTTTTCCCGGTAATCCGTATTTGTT (site CGACCGACTAA)
0.509

And for CTTGTGGCATGGACCGGTTTTCCCGGTAATCCGTATTTGGG (site CTTGTGGCTCC) ?
0.00701

Another sequence to look at: ATGAAGGCATGGACCGGTTTTCCCGGTAATCCGTATTTGGC (site ATGAAGGCTGC)
2.32

Try this sequence next: GGCAATGCATGGACCGGTTTTCCCGGTAATCCGTATTTGAA (site GGCAATGCTTT)
1.26

----------
# recombinant UMI read abundance (log10) listing for each entry below
Assay: recombinant UMI read abundance after kanamycin selection (control-corrected) (log10(CPM+1)); higher = more efficient recombination; extreme values may be limits of the assay; sequences stand for … in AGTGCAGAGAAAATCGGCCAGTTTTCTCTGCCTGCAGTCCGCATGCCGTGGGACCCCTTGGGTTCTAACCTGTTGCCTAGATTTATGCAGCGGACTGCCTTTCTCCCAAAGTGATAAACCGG…AGGTTGGTTTCACT; site = the 11-nt donor
// no unit string in output, number only

residue_codes="AGCACGGCATGGACCGGTTTTCCCGGTAATCCGTATTTGCT (site AGCACGGCTAG)" reported_result=1.9

// returns reported recombinant UMI read abundance (log10) for input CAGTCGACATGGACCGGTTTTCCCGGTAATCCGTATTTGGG (site CAATCGACTCC)
0.0099

How about AGCTTAGCATGGACCGGTTTTCCCGGTAATCCGTATTTGGG (site AGCTTAGCTCC) ?
0.0198

Now this one: CTAACAGCATGGACCGGTTTTCCCGGTAATCCGTATTTGTA (site CTAACAGCTTA)
2.48

Do the same for CTCTACTCATGGACCGGTTTTCCCGGTAATCCGTATTTGCT (site CTCTACACTAG) please
0.869

----------
Test: recombinant barcode read abundance after kanamycin selection (control-corrected) (log10(CPM+1)); higher = more efficient recombination; sequences stand for … in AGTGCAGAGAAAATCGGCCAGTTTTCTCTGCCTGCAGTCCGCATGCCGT…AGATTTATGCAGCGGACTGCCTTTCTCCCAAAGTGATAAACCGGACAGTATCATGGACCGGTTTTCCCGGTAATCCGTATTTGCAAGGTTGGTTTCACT; site = the 11-nt target
Class membership depends on recombinant barcode read abundance (log10) alone; the intervals are one = under 0.3, two = from 0.3 up to 1, three = 1 and over

residue_codes="GTCGTACCTTGGGTTCTAACCTGTTGCCT (site GTCTTACCTAG)" answer_label=one
residue_codes="GAGGTCCCTTGGGTTCTAACCTGTTGCGG (site CTCCCTGCTAG)" answer_label=one
residue_codes="GCTCGAACTTGGGTTCTAACCTGTTGCCT (site GCACGAACTAG)" answer_label=two
residue_codes="ACAGGGTCTTGGGTTCTAACCTGTTGCCT (site ACAGGGTCTAG)" answer_label=three
residue_codes="AAGCGCTCTTGGGTTCTAACCTGTTGCTG (site TTCTATGCTAC)" answer_label=two

Switching to the query record.
Class label required: AACTAAGCTTGGGTTCTAACCTGTTGCCT (site AACTAAGCTAG)
two

----------
Known recombinant barcode read abundance (log10) of a selection of sequences
Test: recombinant barcode read abundance after kanamycin selection (control-corrected) (log10(CPM+1)); higher = more efficient recombination; sequences stand for … in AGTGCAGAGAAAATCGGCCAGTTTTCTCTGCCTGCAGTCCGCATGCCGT…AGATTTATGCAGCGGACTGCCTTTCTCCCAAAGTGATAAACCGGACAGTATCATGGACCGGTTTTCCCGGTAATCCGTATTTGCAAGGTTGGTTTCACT; site = the 11-nt target
Respond with the number and no other words.

Check out these entries, answers already filled in.
residue_codes="ACTTGTACTTGGGTTCTAACCTGTTGCAT (site ACTTGTACTAT)" reported_result=1.22
residue_codes="AATAGGACTTGGGTTCTAACCTGTTGCTA (site AATAAGACTTG)" reported_result=0.0927
residue_codes="AGGCGTACTTGGGTTCTAACCTGTTGCCT (site AGCCGTACTAG)" reported_result=0.302
residue_codes="CCTTGCTCTTGGGTTCTAACCTGTTGCCT (site CCTTGGACTAG)" reported_result=0.114

Okay, next one:
# lookup: recombinant barcode read abundance (log10) of AGGTGTGCTTGGGTTCTAACCTGTTGCCT (site AGGTATGCTAG)
0.289

----------
Experiment: recombinant UMI read abundance after kanamycin selection (control-corrected) (log10(CPM+1)); higher = more efficient recombination; extreme values may be limits of the assay; sequences stand for … in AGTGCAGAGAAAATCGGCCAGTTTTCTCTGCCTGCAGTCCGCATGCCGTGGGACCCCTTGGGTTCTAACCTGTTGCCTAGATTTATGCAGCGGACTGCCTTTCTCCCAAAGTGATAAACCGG…AGGTTGGTTTCACT; site = the 11-nt donor
Parameter: recombinant UMI read abundance (log10). Scope: all listed entries.
Lab note: jot down the number only; don't add units.

Below are worked cases with known answers.
residue_codes="AGACAATCATGGACCGGTTTTCCCGGTAATCCGTATTTGAG (site AGACAATCTCT)" value_kind="recombinant UMI read abundance (log10)" reported_result=2.98
residue_codes="CGGACATCATGGACCGGTTTTCCCGGTAATCCGTATTTGCT (site CGGACTTCTAG)" value_kind="recombinant UMI read abundance (log10)" reported_result=0.255
residue_codes="GGATGGACATGGACCGGTTTTCCCGGTAATCCGTATTTGCC (site GGATAGACTGG)" value_kind="recombinant UMI read abundance (log10)" reported_result=2.17
residue_codes="ACGTAGGCATGGACCGGTTTTCCCGGTAATCCGTATTTGGC (site AGGTAGGCTGC)" value_kind="recombinant UMI read abundance (log10)" reported_result=1.06
residue_codes="CATCTGCCATGGACCGGTTTTCCCGGTAATCCGTATTTGCC (site CATCTGCCTGG)" value_kind="recombinant UMI read abundance (log10)" reported_result=0

State the recorded recombinant UMI read abundance (log10) for this entry: GTTAGAGCATGGACCGGTTTTCCCGGTAATCCGTATTTGAC (site GTTAGAGCTGT)
2.46

// query: ATCCGAGCATGGACCGGTTTTCCCGGTAATCCGTATTTGAG (site ATCCCAGCTCT)
0.172

Try this sequence too: GAGAATACATGGACCGGTTTTCCCGGTAATCCGTATTTGCA (site AAGAATACTTG)
0

Check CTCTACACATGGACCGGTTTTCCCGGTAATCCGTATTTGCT (site TTCTACACTAG) too.
0.107

One more sequence: CCAACTTCATGGACCGGTTTTCCCGGTAATCCGTATTTGAT (site CCAACTTCTAT)
0

Follow-up entry: CTCGGTCCATGGACCGGTTTTCCCGGTAATCCGTATTTGCA (site CGCGGTCCTTG)
0.00731

Next entry: ATTCAGACATGGACCGGTTTTCCCGGTAATCCGTATTTGGT (site ATTGAGACTAC)
0.305

What about AGAACAACATGGACCGGTTTTCCCGGTAATCCGTATTTGAT (site AGAACAACTAT) ?
1.63

Entry to check: CGGTCATCATGGACCGGTTTTCCCGGTAATCCGTATTTGCT (site CGGACATCTAG)
0

Try this sequence too: CTCCCTACATGGACCGGTTTTCCCGGTAATCCGTATTTGAG (site CTCCCTACTCG)
0.00797

Do the same for CCCTTCTCATGGACCGGTTTTCCCGGTAATCCGTATTTGAG (site CCCTTCTCTCT) please
0.00554

Now this one: TAGCCTTCATGGACCGGTTTTCCCGGTAATCCGTATTTGTT (site TAGCCTTCTAA)
1.08

Same lookup for AGTTCAGCATGGACCGGTTTTCCCGGTAATCCGTATTTGGG (site AGGTCAGCTCC) , please.
0.0161

And the next one, CCAAAGACATGGACCGGTTTTCCCGGTAATCCGTATTTGCA (site CCAAAGACTTG) ?
2.26

Now try CATTTGGCATGGACCGGTTTTCCCGGTAATCCGTATTTGGA (site CAATTGGCTTC) .
0.313

And what about the sequence GCACACCCATGGACCGGTTTTCCCGGTAATCCGTATTTGTT (site GCACACCCTAA) ?
0.67
